study system: Shiga toxin 2 (Escherichia coli O157:H7) (UniProt P09385+P09386)
procedure text: E. coli 0.157:H7 Shiga Toxin SOP - stx2 screening assay
Format: functional
Design: scale not given: direction of the effect not stated beside the values
particulars: 30 µM
In plain terms, low Percent Effect, meaning strictly below -10%, gives met, and everything else gives not met.

Dear reviewer, please state whether `Cc1occc1C(=O)N1CCO[C@H]2[C@@H](Oc3ccccn3)CC[C@@H]21` has Percent Effect strictly beneath -10%.
met

Dear reviewer, please state whether CN(C)C(C(=O)N1CCCC1)c1ccccc1F (stereo unspecified) has Percent Effect strictly beneath -10%.
met

Dear reviewer, please state whether `Cn1nc(C2CN(C(=O)c3cscn3)C2)c2nccnc21` has Percent Effect strictly beneath -10%.
not met
